Target: human TRPV1 (Homo sapiens (Human), UniProt Q8NER1)
Sequence (Q8NER1 whole entry): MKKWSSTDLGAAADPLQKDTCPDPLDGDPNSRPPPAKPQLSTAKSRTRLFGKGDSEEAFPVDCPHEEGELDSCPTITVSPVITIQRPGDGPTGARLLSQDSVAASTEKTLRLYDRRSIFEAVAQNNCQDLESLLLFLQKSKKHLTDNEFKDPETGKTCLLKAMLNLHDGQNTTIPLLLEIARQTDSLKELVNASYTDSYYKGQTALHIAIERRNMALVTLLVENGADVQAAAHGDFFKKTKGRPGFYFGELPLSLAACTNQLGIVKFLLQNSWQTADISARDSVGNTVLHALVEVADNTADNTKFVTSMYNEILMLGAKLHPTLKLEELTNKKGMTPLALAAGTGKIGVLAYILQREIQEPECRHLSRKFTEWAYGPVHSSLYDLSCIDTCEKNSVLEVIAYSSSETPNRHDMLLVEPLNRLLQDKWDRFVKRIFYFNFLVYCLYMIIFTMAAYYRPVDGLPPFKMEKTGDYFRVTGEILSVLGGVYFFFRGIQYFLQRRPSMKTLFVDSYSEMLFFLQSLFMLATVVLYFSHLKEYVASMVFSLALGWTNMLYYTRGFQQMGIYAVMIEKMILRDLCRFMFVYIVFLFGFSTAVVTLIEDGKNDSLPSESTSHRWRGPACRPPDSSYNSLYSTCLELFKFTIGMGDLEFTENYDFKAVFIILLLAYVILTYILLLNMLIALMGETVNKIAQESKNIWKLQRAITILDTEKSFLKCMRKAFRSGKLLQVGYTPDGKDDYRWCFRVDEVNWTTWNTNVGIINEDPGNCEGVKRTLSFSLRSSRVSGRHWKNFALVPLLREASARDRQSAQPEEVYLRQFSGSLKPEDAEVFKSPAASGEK
Experiment: Capsaicin Activation Assay (intracellular Ca2+, FLIPR)
Conditions: recombinant HEK293 cells expressing hTRPV1, 50 nM capsaicin
Method: (Logan, Utah). Dulbecco's phosphate-buffered saline (D-PBS) (with 1 mg/mL glucose and 3.6 mg/l Na pyruvate, without phenol red), L-glutamine, hygromycin B, and Lipofectamine® were obtained from Life Technologies (Grand Island, N.Y.). G418 sulfate was obtained from Calbiochem-Novabiochem Corp. (San Diego, Calif.). […] (St. Louis, Mo.). […] Fluorescence readings were made at 1 to 5 second intervals over the course of the experimental run.
measurementKind: pIC50
The read-out pIC50 is expressed as -log10 of concentration in moles per litre.

Example results:
Value of measured pIC50 for the entry CN1C(=O)NCc2c(NC(=O)N[C@@H]3CCOc4cc(F)ccc43)cccc21 [Example 159] : 6.22

pIC50 recorded for this compound, CN1C(=O)CCc2ccc(NC(=O)N[C@@H]3CCc4cc(Cl)ccc43)cc21 [Example 283] , is 5.32

// field: pIC50; key: CN1C(=O)CCc2ccc(NC(=O)N[C@@H]3CC(C)(C)Oc4cc(Br)ccc43)cc21 [Example 297] ; value = 6.89

Continuing:
// field: pIC50; key: C[C@@]1(CF)C[C@@H](NC(=O)Nc2ccc3c(c2)NC(=O)N(CCO)C3)c2ccc(C(F)(F)F)cc2O1 [Example 58] ; value = 7.20

get_value(item= C[C@@]1(CF)C[C@@H](NC(=O)Nc2ccc3c(c2)NC(=O)CC3)c2ccc(Cl)cc2O1 [Example 246] , readout=pIC50) returns 6.89

Kindly note the recorded pIC50 for Cn1c(=O)ccc2c(NC(=O)N[C@@H]3CC(CF)(CF)Oc4cc(Cl)ccc43)cccc21 [Example 20] , which is 7.24

Given item O=C1CCc2ccc(NC(=O)N[C@@H]3CCOc4c3cccc4C(F)(F)F)cc2N1 [Example 238] , the value recorded as its pIC50 is 6.29

Record summary for CN1Cc2ccc(NC(=O)N[C@@H]3CCOc4ccccc43)cc2NC1=O [Example 175] : reported pIC50 = 5.39

* * *

target: human TRPV1 (Homo sapiens (Human), UniProt Q8NER1); experiment: Capsaicin Activation Assay (intracellular Ca2+, FLIPR); conditions: recombinant HEK293 cells expressing hTRPV1, 50 nM capsaicin
pIC50: −log10 of the molar value.
Label fulfilled when pIC50 >= 7; otherwise not fulfilled.

Here are 5 compounds together with their reported answers.
// query Could you verify whether the entry `CN1C(=O)NCc2c(NC(=O)N[C@@H]3CC4(CCC4)Oc4ccc(F)cc43)cccc21` shows pIC50 of no less than 7?
// result fulfilled

// query State whether the measured pIC50 reaches 7, counting equality as reaching it, for `CN1C(=O)CCc2ccc(NC(=O)N[C@@H]3C[C@](C)(C(F)F)Oc4ccccc43)cc21`
// result not fulfilled

// query Hello, I need to know if `CCC1(CC)C[C@@H](NC(=O)Nc2cccc3c2CNC(=O)N3C)c2ccc(Cl)c(Cl)c2O1` has measured pIC50 not below 7. Thanks!
// result not fulfilled

// query // inclusive: pIC50 at least 7? input: `CC1(C)C[C@@H](NC(=O)Nc2ccc3c(c2)NC(=O)N(CCO)C3)c2cc(F)ccc2O1`
// result not fulfilled

// query Item `CN1C(=O)NCc2c(NC(=O)N[C@H]3CCOc4cc(OC(F)(F)F)ccc43)cccc21` with pIC50 of 7 or above?
// result not fulfilled

Now for a further compound.
// query Confirm if pIC50 reported for the compound O=C(Nc1ccc2c(c1)NC(=O)C(N1CCCOCC1)C2)N[C@@H]1CC(CF)(CF)Oc2cc(Cl)ccc21 (stereo partly shown) is 7 or above.
// result not fulfilled

* * *

target: UniProtKB Q8NER1; experiment: Capsaicin Activation Assay (intracellular Ca2+, FLIPR); settings: recombinant HEK293 cells expressing hTRPV1, 50 nM capsaicin
measurementKind: pIC50
// field semantics: pIC50 = negative decimal log of concentration (mol/L)

Some molecules with recorded pIC50:
Short answer for `CCCC1(CCC)C[C@@H](NC(=O)Nc2ccc3c(c2)N(C)C(=O)CC3)c2cccc(F)c2O1` : pIC50 was 6.77

So, `Cn1c(=O)ccc2c(NC(=O)N[C@@H]3CCOc4cc(OC(F)(F)F)ccc43)cccc21` ? Its pIC50 was 7.55

Please fill in: pIC50 reported for `Cn1c(=O)ccc2c(NC(=O)N[C@@H]3CC(CF)(CF)Oc4c(F)cccc43)cccc21` = 7.20

// pIC50 value for `Cn1c(=O)ccc2c(NC(=O)N[C@@H]3C[C@@](C)(CF)Oc4cc(Cl)ccc43)cccc21` : 7.92

According to the records, this molecule `CN1C(=O)CCc2ccc(NC(=O)N[C@@H]3CC(C)(C)Oc4c(F)cccc43)cc21` displays pIC50 of 7.68

Field pIC50 (entry `O=C1CCc2ccc(NC(=O)N[C@@H]3CC(CF)(CF)Oc4c(F)cccc43)cc2N1` ) reads 6.66

Record summary for `O=C1COc2ccc(NC(=O)N[C@@H]3CC(CF)(CF)Oc4cc(Cl)ccc43)cc2N1` : reported pIC50 = 7.00

// below: pIC50 requested for another molecule
Form: molecule = `Cn1c(=O)ccc2c(NC(=O)N[C@@H]3CCc4cc(C(F)(F)F)ccc43)cccc21` ; pIC50 = 8.00

* * *

molecular target: human TRPV1 (Homo sapiens (Human), UniProt Q8NER1); assay: Capsaicin Activation Assay (intracellular Ca2+, FLIPR); conditions: recombinant HEK293 cells expressing hTRPV1, 50 nM capsaicin
measurementKind: IC50 (nM)
Report as a plain number; the unit nM is understood.

Value of IC50 reported for the compound `Cn1c(=O)ccc2c(NC(=O)N[C@@H]3CCOc4ccc(F)cc43)cccc21` is 250

IC50 reported for this compound `CN1Cc2ccc(NC(=O)N[C@@H]3CC(CF)(CF)Oc4ccc(F)cc43)cc2NC1=O` : 1500

Quick note, IC50 for `CN1Cc2ccc(NC(=O)N[C@@H]3CC4(CCCC4)Oc4ccccc43)cc2NC1=O` landed at 400

Please look at the following compound next.
The recorded IC50 for `CN1Cc2ccc(NC(=O)N[C@@H]3CCc4cc(Cl)ccc43)cc2NC1=O` is 70

* * *

Entries and their pIC50
Target: human TRPV1 (Homo sapiens (Human), UniProt Q8NER1)
Experiment: Capsaicin Activation Assay (intracellular Ca2+, FLIPR)
Conditions: recombinant HEK293 cells expressing hTRPV1, 50 nM capsaicin
Description: (Logan, Utah). Dulbecco's phosphate-buffered saline (D-PBS) (with 1 mg/mL glucose and 3.6 mg/l Na pyruvate, without phenol red), L-glutamine, hygromycin B, and Lipofectamine® were obtained from Life Technologies (Grand Island, N.Y.). G418 sulfate was obtained from Calbiochem-Novabiochem Corp. (San Diego, Calif.). […] (St. Louis, Mo.). […] Fluorescence readings were made at 1 to 5 second intervals over the course of the experimental run.
Field pIC50 (float): negative decimal logarithm of the concentration in molar.

Per the records, this molecule ( `CCC1(CC)C[C@@H](NC(=O)Nc2cccc3c2ccc(=O)n3C)c2ccccc2O1` ) has pIC50 equal to 7.77

Notebook: `CN1Cc2ccc(NC(=O)N[C@@H]3C[C@](C)(C(F)(F)F)Oc4ccccc43)cc2NC1=O` , pIC50 read as 7.32

Consider `CN1C(=O)CCc2ccc(NC(=O)N[C@@H]3CC(C)(C)Oc4cc(F)ccc43)cc21` . Its measured pIC50 is 6.96

Form field pIC50, entry `CN1Cc2ccc(NC(=O)N[C@@H]3CCOc4c3cccc4C(F)(F)F)cc2NC1=O` : 7.05

* * *

target: human TRPV1 (Homo sapiens (Human), UniProt Q8NER1); test: Acid Activation Assay (pH 5.0, intracellular Ca2+, FLIPR); type: cell-based; settings: percentage of the maximal pH 5.0-induced response remaining; recombinant HEK293 hTRPV1 cells; maximum concentration tested 37.5 μM
Strictly below 40% in human TRPV1 H^+ (max % remain): condition met. Otherwise: condition not met.

Worked set:
// query # TODO verify human TRPV1 H^+ (max % remain) < 40% strictly for this compound: CCC1(CC)C[C@@H](NC(=O)Nc2ccc3c(c2)NC(=O)CC3)c2ccccc2O1 [Example 223]
// result condition not met

// query Dear colleague, could you confirm whether human TRPV1 H^+ (max % remain) of CC1(C)C[C@H](NC(=O)Nc2ccc3c(c2)NC(=O)CO3)c2cc(F)ccc2O1 [Example 123] falls below 40%? Thanks.
// result condition not met

// query # check: human TRPV1 H^+ (max % remain) < 40% for CN1C(=O)NCc2c(NC(=O)N[C@@H]3CC(CF)(CF)Oc4c(Cl)cccc43)cccc21 [Example 148]
// result condition met

// query Please state whether human TRPV1 H^+ (max % remain) is below 40% for O=C1CCc2ccc(NC(=O)N[C@@H]3CC(CF)(CF)Oc4cc(Cl)ccc43)cc2N1 [Example 31]
// result condition met

// query Hi there! Is human TRPV1 H^+ (max % remain) for O=C1CCc2ccc(NC(=O)N[C@@H]3CCc4cc(Cl)ccc43)cc2N1 [Example 251] below 40%, do you know?
// result condition met

Continuing:
// query Hello, I'm reviewing records and need to know if human TRPV1 H^+ (max % remain) of CCC1(CC)C[C@@H](NC(=O)Nc2cccc3c2ccc(=O)n3C)c2cccc(F)c2O1 [Example 66] is below 40%. Could you check?
// result condition not met

// query Strictly below 40%: is that where human TRPV1 H^+ (max % remain) of CN1Cc2ccc(NC(=O)N[C@@H]3CC(CF)(CF)Oc4c3ccc(Cl)c4F)cc2NC1=O [Example 192] sits?
// result condition not met
